target: NET (norepinephrine transporter) (Rattus norvegicus); construct: Cortex from rat brain was collected and homogenised; from tissue; host or cells: rat brain cortex; experiment: In vitro determination of NET reuptake inhibition ([3H]Nixosetine binding, rat brain cortex); conditions: rat brain cortex, read-out: NET pIC50 (converted)
Sequence (Q63380 1-617): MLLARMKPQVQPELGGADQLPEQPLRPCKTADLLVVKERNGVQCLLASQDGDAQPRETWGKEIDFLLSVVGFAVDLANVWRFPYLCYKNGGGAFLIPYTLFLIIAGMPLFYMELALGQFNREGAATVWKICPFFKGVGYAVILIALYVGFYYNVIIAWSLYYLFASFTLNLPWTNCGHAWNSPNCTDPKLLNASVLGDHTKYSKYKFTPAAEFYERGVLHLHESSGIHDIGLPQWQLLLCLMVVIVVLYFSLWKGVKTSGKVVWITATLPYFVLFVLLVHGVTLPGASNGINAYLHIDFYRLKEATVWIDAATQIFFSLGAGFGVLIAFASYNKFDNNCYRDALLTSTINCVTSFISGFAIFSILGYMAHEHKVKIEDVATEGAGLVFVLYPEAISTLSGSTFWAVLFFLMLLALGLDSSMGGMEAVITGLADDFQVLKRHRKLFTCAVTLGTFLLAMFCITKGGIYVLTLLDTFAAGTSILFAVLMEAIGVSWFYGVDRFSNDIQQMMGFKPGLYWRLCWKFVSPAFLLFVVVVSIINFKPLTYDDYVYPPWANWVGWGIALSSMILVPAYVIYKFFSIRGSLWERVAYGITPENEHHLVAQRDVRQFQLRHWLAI

{"COMPOUND": "CC1(O)CCN(C[C@H]2C[C@@H]3c4ccccc4Cc4ccc(F)cc4[C@@H]3O2)C1 (stereo partly shown) [Compound 39]", "STUDY_TARGET": "NET (norepinephrine transporter) (Rattus norvegicus)", "COMPARATIVE_SIGN": "=", "IC50 / µM": 1.95}
{"COMPOUND": "CCNC(=O)N1CCN(C[C@H]2C[C@@H]3c4ccccc4Cc4ccc(F)cc4[C@@H]3O2)CC1 [Compound 86]", "STUDY_TARGET": "NET (norepinephrine transporter) (Rattus norvegicus)", "COMPARATIVE_SIGN": "=", "IC50 / µM": 7.08}
{"COMPOUND": "Cc1ccc(S(=O)(=O)N2CCN(CC3CC4c5ccccc5Cc5ccc(F)cc5C4O3)CC2)cc1 (stereo not shown) [Compound 107]", "STUDY_TARGET": "NET (norepinephrine transporter) (Rattus norvegicus)", "COMPARATIVE_SIGN": ">", "IC50 / µM": 10}
{"COMPOUND": "O=C(O)C1CCN(C[C@H]2C[C@@H]3c4ccccc4Cc4ccc(F)cc4[C@@H]3O2)CC1 [Compound 157]", "STUDY_TARGET": "NET (norepinephrine transporter) (Rattus norvegicus)", "COMPARATIVE_SIGN": ">", "IC50 / µM": 10}
{"COMPOUND": "Fc1cccc(OCC2CCN(CC3CC4c5ccccc5Cc5ccc(F)cc5C4O3)C2)c1 (stereo not shown) [Compound 27]", "STUDY_TARGET": "NET (norepinephrine transporter) (Rattus norvegicus)", "COMPARATIVE_SIGN": "=", "IC50 / µM": 5.01}
{"COMPOUND": "CC(C)(C)COC(=O)NC1CCN(CC2CC3c4ccccc4Cc4ccc(F)cc4C3O2)CC1 (stereo not shown) [Compound 215]", "STUDY_TARGET": "NET (norepinephrine transporter) (Rattus norvegicus)", "COMPARATIVE_SIGN": "=", "IC50 / µM": 7.41}
{"COMPOUND": "N#Cc1cccc(CN2CCN(CC3CC4c5ccccc5Cc5ccc(F)cc5C4O3)CC2)c1 (stereo not shown) [Compound 70]", "STUDY_TARGET": "NET (norepinephrine transporter) (Rattus norvegicus)", "COMPARATIVE_SIGN": "=", "IC50 / µM": 0.708}
{"COMPOUND": "Fc1ccc2c(c1)C1OC(CN3CCN(C(=S)NC4CCCCC4)CC3)CC1c1ccccc1C2 (stereo not shown) [Compound 114]", "STUDY_TARGET": "NET (norepinephrine transporter) (Rattus norvegicus)", "COMPARATIVE_SIGN": "=", "IC50 / µM": 1.1}
{"COMPOUND": "O=S(=O)(c1ccccc1)N1CCN(CC2CC3c4ccccc4Cc4ccc(F)cc4C3O2)CC1 (stereo not shown) [Compound 106]", "STUDY_TARGET": "NET (norepinephrine transporter) (Rattus norvegicus)", "COMPARATIVE_SIGN": "=", "IC50 / µM": 9.55}
{"COMPOUND": "O=C(NC1CCN(CC2CC3c4ccccc4Cc4ccc(F)cc4C3O2)CC1)C1CC1 (stereo not shown) [Compound 220]", "STUDY_TARGET": "NET (norepinephrine transporter) (Rattus norvegicus)", "COMPARATIVE_SIGN": "=", "IC50 / µM": 5.37}
{"COMPOUND": "Fc1ccc(OCC2CCN(CC3CC4c5ccccc5Cc5ccc(F)cc5C4O3)C2)cc1 (stereo not shown) [Compound 26]", "STUDY_TARGET": "NET (norepinephrine transporter) (Rattus norvegicus)", "COMPARATIVE_SIGN": ">", "IC50 / µM": 10}
{"COMPOUND": "OCC1CCN(CC2CC3c4ccccc4Cc4ccc(F)cc4C3O2)CC1 (stereo not shown) [Compound 151]", "STUDY_TARGET": "NET (norepinephrine transporter) (Rattus norvegicus)", "COMPARATIVE_SIGN": ">", "IC50 / µM": 10}
{"COMPOUND": "COCC1(O)CCN(C[C@H]2C[C@@H]3c4ccccc4Cc4ccc(F)cc4[C@@H]3O2)CC1 [Compound 272]", "STUDY_TARGET": "NET (norepinephrine transporter) (Rattus norvegicus)", "COMPARATIVE_SIGN": "=", "IC50 / µM": 0.724}
{"COMPOUND": "Fc1ccc2c(c1)C1OC(CN3CCN(c4nc5ccccc5[nH]4)CC3)CC1c1ccccc1C2 (stereo not shown) [Compound 127]", "STUDY_TARGET": "NET (norepinephrine transporter) (Rattus norvegicus)", "COMPARATIVE_SIGN": "=", "IC50 / µM": 3.8}
{"COMPOUND": "CC(C)(C)NC(=O)C1CCN(CC2CC3c4ccccc4Cc4ccc(F)cc4C3O2)CC1 (stereo not shown) [Compound 173]", "STUDY_TARGET": "NET (norepinephrine transporter) (Rattus norvegicus)", "COMPARATIVE_SIGN": "=", "IC50 / µM": 6.46}
{"COMPOUND": "Cc1cccc(C(=O)NC2CCN(CC3CC4c5ccccc5Cc5ccc(F)cc5C4O3)CC2)c1 (stereo not shown) [Compound 225]", "STUDY_TARGET": "NET (norepinephrine transporter) (Rattus norvegicus)", "COMPARATIVE_SIGN": "=", "IC50 / µM": 5.25}

All values here come from patent US8569267B2.
